# ASSAY_SUMMARY: HepG2 cytotoxicity, primary screen, cytotoxicity control for P. falciparum antimalarial project, cell-based, ATP luminescence (AID 2303);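 further: 0% = DMSO wells and 100% = digitonin-killed cells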
# MEASUREMENT_CONDITIONS: HepG2 viability, 24-48 h, at 10 µM, stronger effect = higher value
VALUE_TYPE: inhibition (%)

molecule=CC(C)CN1CCN(c2nc(C#N)c3c(c2C(=S)NC2CCCCC2)CC(C)(C)OC3)CC1 value_type=inhibition unit=% numeric_readout=-4
molecule=C=Cc1c(C2CCN(CCCCNC(=O)c3ccc(-c4ccc(C#N)cc4)cc3)CC2)ccc2c1CCCC2 value_type=inhibition unit=% numeric_readout=75
molecule=Cc1cccc(-c2ccc(NC(=O)Nc3ccc4nccc(N5CCN(C)CC5)c4c3)cc2C)n1 value_type=inhibition unit=% numeric_readout=4
molecule=CCCCCCOc1ccc(C(=O)NCCC2CCN(CCCCCNC(=O)C=Cc3ccc(Cl)c(Cl)c3)CC2)cc1 value_type=inhibition unit=% numeric_readout=13
molecule=Cc1ccc(NC(=O)c2ccc(N3CCN(c4ccncc4)CC3)cn2)cc1F value_type=inhibition unit=% numeric_readout=2
molecule=CCCCc1ccccc1NS(=O)(=O)c1ccc(OC)c(N2CCNCC2)c1 value_type=inhibition unit=% numeric_readout=6
molecule="O=C(NC1CCN(c2ccnc3cc(Cl)ccc23)C1)c1cccc(F)c1 (centres undefined)" value_type=inhibition unit=% numeric_readout=30
molecule=CC(C)(C)c1ccc(NC(=O)c2cccc(CN3CCCN(Cc4cccc(O)c4)CC3)c2)cc1 value_type=inhibition unit=% numeric_readout=97
molecule="O=S(=O)(NC1CCN(c2ccnc3cc(Cl)ccc23)C1)c1ccc(F)cc1 (centres undefined)" value_type=inhibition unit=% numeric_readout=3

###

# TGT: Plasmodium falciparum protein kinase 6 (PK6, PF3D7_1337100) (UniProt Q8IDW1)
# ASSAY_SUMMARY: PfPK6 kinase inhibitors, biochemical, TCAMS library (AID 1159586)
# MEASUREMENT_CONDITIONS: recombinant PfPK6, Kinase-Glo ATP depletion luminescence
Results with a measured potency or affinity are listed apart. Active and inactive are the calls of the source. How the calls were made is not given here.
VALUE_TYPE: outcome

molecule=CN(C)CCCN1CCN(C(=O)c2cc3cc(-c4ccccc4)ccc3n2S(=O)(=O)c2ccccc2)CC1 tgt="Plasmodium falciparum protein kinase 6 (PK6, PF3D7_1337100) (UniProt Q8IDW1)" result=inactive
molecule="N#Cc1cc([N+](=O)[O-])ccc1-n1nc(-c2cccc(Cl)c2)n(CC2CCCO2)c1=S (centres undefined)" tgt="Plasmodium falciparum protein kinase 6 (PK6, PF3D7_1337100) (UniProt Q8IDW1)" result=inactive
molecule=O=[N+]([O-])c1cccc(CNCC2CCN(Cc3ccc(-c4ccccc4)cc3)CC2)c1 tgt="Plasmodium falciparum protein kinase 6 (PK6, PF3D7_1337100) (UniProt Q8IDW1)" result=inactive
molecule=C=CCc1cccc(CN2CCC(c3cc(=O)[nH]c(-c4ccccn4)n3)CC2)c1O tgt="Plasmodium falciparum protein kinase 6 (PK6, PF3D7_1337100) (UniProt Q8IDW1)" result=inactive
molecule=COc1c(C2=CCN(CCCCNC(=O)c3ccc(-c4ccc(C#N)cc4)cc3)CC2)ccc2c1CCCC2 tgt="Plasmodium falciparum protein kinase 6 (PK6, PF3D7_1337100) (UniProt Q8IDW1)" result=inactive
molecule=COc1ccccc1Nc1nc(NC2CCN(C)CC2)cc(-c2cccc(C(F)(F)F)c2)n1 tgt="Plasmodium falciparum protein kinase 6 (PK6, PF3D7_1337100) (UniProt Q8IDW1)" result=inactive
molecule="COCC(C)n1c(C)cc(C(=O)CSc2nnc(Nc3ccccc3)s2)c1C (centres undefined)" tgt="Plasmodium falciparum protein kinase 6 (PK6, PF3D7_1337100) (UniProt Q8IDW1)" result=inactive
molecule=Cc1cccc2[nH]c(-c3ccc(-c4ccc(CN5CCC(C(N)=O)CC5)cc4)cc3)nc12 tgt="Plasmodium falciparum protein kinase 6 (PK6, PF3D7_1337100) (UniProt Q8IDW1)" result=inactive
molecule=COc1ccc(-c2ccc(NC(=O)c3cccc(C#N)c3)cc2)cc1CN1CCC(O)CC1 tgt="Plasmodium falciparum protein kinase 6 (PK6, PF3D7_1337100) (UniProt Q8IDW1)" result=inactive

###

# ASSAY_SUMMARY: antimalarial activity against Dd2 strain (AID 2302);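 further: 0% = DMSO untreated growth and 100% = chloroquine plus artemisinin killed control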
# MEASUREMENT_CONDITIONS: P. falciparum Dd2 in RBCs, LDH growth readout, 72 h; at 2 µM
Active and inactive are the calls of the source.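 How the source made its calls: active means growth inhibition above 50% at the single 2 µM test dose, taken to imply half-maximal potency below 2 µM; inactive means the rest.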
Outcome codes: active, inactive

molecule="O=C(NCc1cccc(C(F)(F)F)c1)C1CCCN(C(=O)c2ccc(O)c(-c3ccc(Cl)c(Cl)c3)c2)C1 (centres undefined)" assigned_label=inactive
molecule=CN(C)CCC=C1c2ccccc2Sc2c(O)cc(Cl)cc21 assigned_label=active
molecule=CCN(CC)CCN(Cc1ccc(-c2ccc(C(F)(F)F)cc2)cc1)C(=O)Cn1c(CCc2c(F)ccc(F)c2F)nc(=O)c2ccccc21 assigned_label=active
molecule=O=C(Nc1cccc(-c2ccc(-c3nc4ccccc4[nH]3)cc2)c1)Nc1ccc(F)c(F)c1F assigned_label=inactive
molecule=CC1(C)N=C(N)N=C(N)N1OCc1cc(Cl)c(CON2C(N)=NC(N)=NC2(C)C)cc1Cl assigned_label=active
molecule="CC(C)CCN1CCC(Oc2ccc(NC(=O)c3cccs3)cc2Cl)C1 (centres undefined)" assigned_label=active
molecule=CCN(CC)CCNC(=O)c1ccc(NC(=O)c2cn(-c3ccccc3)nc2-c2cccs2)cc1 assigned_label=active
molecule=CCc1nc(N)nc(N)c1-c1ccc(F)c(F)c1 assigned_label=inactive
molecule=Cc1cc(N[C@@H](Cc2ccccc2)C(=O)NCc2cccs2)nc(NCC2CCCCC2)n1 assigned_label=active

###

# TGT: Calcium-dependent protein kinase 4 (Plasmodium falciparum (isolate 3D7))
# ASSAY_SUMMARY: PfCDPK4 kinase inhibitors, biochemical, TCAMS library (AID 1159588)
# MEASUREMENT_CONDITIONS: recombinant PfCDPK4, Kinase-Glo ATP depletion luminescence
Entries with a potency or affinity are not part of this list. Calls of active or inactive are those of the source. Cut-off not given; nearly all actives show IC50 up to about 0.91 µM.
VALUE_TYPE: outcome

compound_smiles=Cc1cc(N(C)C)nc(Nc2ccc(NC(=O)CCc3ccccc3)cc2)n1 value_type=outcome result=inactive
compound_smiles=N#Cc1cccc(NC(=O)Nc2cccc(-c3ccc(-c4nc5ccc(C(F)(F)F)cc5[nH]4)cc3)c2)c1 value_type=outcome result=inactive
compound_smiles=Cc1nc2ccc(NC(=O)c3cc(S(=O)(=O)N(C)C)ccc3Cl)cc2s1 value_type=outcome result=inactive
compound_smiles=O[C@@H](c1ccc2ccccc2c1)[C@@H]1CN(CCc2ccccc2)CC[C@@]1(O)c1ccccc1 value_type=outcome result=inactive
compound_smiles=COc1cccc(-c2cc(C(=O)Nc3ccc4nc(-c5ccccc5)[nH]c4c3)[nH]n2)c1 value_type=outcome result=inactive
compound_smiles=NC(=NCCCCCCCCN=C(N)Nc1ccc(Cl)cc1)Nc1ccc(Cl)cc1 value_type=outcome result=inactive
compound_smiles=COc1cc2nccc(Nc3ccc(OCc4ccc(NC(C)=O)cc4)cc3)c2cc1OC value_type=outcome result=inactive
compound_smiles=Cc1ccnc(Nc2nc(-c3ccccn3)cs2)c1 value_type=outcome result=inactive
compound_smiles=CCCCOC(=O)c1ccc(NC(=O)Nc2ccc(Cn3ncc(N4CCCNCC4)c(Cl)c3=O)cc2)cc1 value_type=outcome result=inactive
compound_smiles=Oc1ccc(Nc2nc(NCc3ccco3)c3ccccc3n2)cc1 value_type=outcome result=inactive

###

# TGT: Protein kinase 7 (PK7), Plasmodium falciparum 3D7 (PF3D7_0213400)
# ASSAY_SUMMARY: inhibition of Plasmodium PK7 catalytic activity – biochemical, TCAMS antimalarial set, Kinase-Glo luminescence (AID 1159587)
# MEASUREMENT_CONDITIONS: recombinant PfPK7, Kinase-Glo ATP depletion luminescence
Calls of active or inactive are those of the source. No rule for the calls is given here.
VALUE_TYPE: outcome

compound_smiles=Cc1cccc(Nc2nccc(Nc3cccc(C(=O)NCCN4CCOCC4)c3)n2)c1 value_type=outcome result=inactive
compound_smiles=Cc1cnccc1/C=C/c1cccc(OCCCN2CCc3ccc(S(C)(=O)=O)cc3CC2)c1 value_type=outcome result=inactive
compound_smiles=CCCCc1cc(NCC)nc(Nc2cccc(OC)c2)n1 value_type=outcome result=inactive
compound_smiles=Nc1nccc(-c2ccc3c(-c4cccc(F)c4)cnc(N)c3c2)n1 value_type=outcome result=inactive
compound_smiles=CN1CCC(c2ccc(NC(=O)c3ccc(-c4cccc(C(F)(F)F)c4)o3)cc2)CC1 value_type=outcome result=inactive

###

# TGT: Protein kinase 7 (PK7), Plasmodium falciparum 3D7 (PF3D7_0213400) (UniProt Q7YTF7)
# ASSAY_SUMMARY: inhibition of Plasmodium PK7 catalytic activity – biochemical, TCAMS antimalarial set, Kinase-Glo luminescence (AID 1159587)
# MEASUREMENT_CONDITIONS: recombinant PfPK7, Kinase-Glo ATP depletion luminescence
Active and inactive are the calls of the source. How the calls were made is not given here.
VALUE_TYPE: outcome

molecule=O=C(Nc1cccnc1)c1cc(-c2cc(Cl)ccc2O)n[nH]1 value_type=outcome result=inactive
molecule=COc1ccc(C(=O)NCc2ccc(N)nc2C)cc1Nc1ncc(-c2cccc(N(C)C)c2)cn1 value_type=outcome result=inactive
molecule=O=C(Nc1cc(Cl)ccc1Cl)N[C@H]1CCN(CCCCCNC(=O)[C@@H]2C[C@H]2c2ccc(Cl)c(Cl)c2)C1 value_type=outcome result=inactive
molecule=CCOc1cc(C(=O)NCCCN2CCN(c3cccc(Cl)c3)CC2)ccc1-c1nc2cc(Cl)c(F)cc2[nH]1 value_type=outcome result=inactive
molecule="COCCOc1cccc(CN2CCC(c3cc4nc(C)cc(C(F)(F)F)n4n3)C2)c1 (centres undefined)" value_type=outcome result=inactive
molecule=Cc1noc(C)c1-c1cccc(CNCc2cccc(-c3ccc(-c4nc5c(C)cccc5[nH]4)cc3)c2)c1 value_type=outcome result=inactive
molecule=Cc1cc(N[C@@H](Cc2ccccc2)C(=O)Nc2ccccc2)nc(NCCc2cccnc2)n1 value_type=outcome result=inactive
molecule=COc1ccc(CN2CCC(Oc3cccc(NC(=O)c4ccc(C(F)(F)F)cc4)c3)CC2)cc1 value_type=outcome result=inactive
molecule=CCN(CC)CCn1c(=N)n(CC(=O)c2ccc(-c3ccccc3)cc2)c2ccccc21 value_type=outcome result=inactive
molecule=CN(C)c1cc(NC(=O)Nc2ccccc2)c2ccccc2n1 value_type=outcome result=inactive
molecule=O=C(Nc1cccc(CN2CCCN(Cc3cccc(O)c3)CC2)c1)c1ccc(Cl)c(Cl)c1 value_type=outcome result=inactive
molecule=O=C(Nc1ccc(Cl)c(Cl)c1)N1CCC(CNCc2cccc([N+](=O)[O-])c2)CC1 value_type=outcome result=inactive
molecule=CC1(C)C(=O)Nc2ccccc2N1C(=O)CN1CCN(c2ccccc2O)CC1 value_type=outcome result=inactive
molecule=CC(C)Nc1cc(C(=O)N[C@@H](Cc2ccccc2)[C@H](O)CNC(C)(C)c2cccc(C(F)(F)F)c2)cc(N2CCCCS2(=O)=O)c1 value_type=outcome result=inactive
molecule=c1cnc2ccc(NCc3ccc(-c4ccc(CNC5CCCC5)cc4)cc3)cc2c1 value_type=outcome result=inactive
molecule="COc1cc(NC(=O)N2CCOC(CCN3CCC4(CCc5ccccc54)CC3)(c3ccc(Cl)c(Cl)c3)C2)cc(OC)c1 (centres undefined)" value_type=outcome result=inactive
molecule=CC(C)c1ccc(NC(=O)c2cccc(CN3CCCN(CC4CCCCC4)CC3)c2)cc1 value_type=outcome result=inactive
molecule=CCN(CCCN1CCCCC1)c1cc(C)nc(Nc2ccc(Cl)cc2)n1 value_type=outcome result=inactive
molecule=Cc1noc(-c2ccc(O)cc2O)c1-c1ccc2c(c1)OCCCO2 value_type=outcome result=inactive
